The reported numbers originate from patent US12624309B2.

Hi there, I'd appreciate the recorded percent remaining, 168 h for every entry that follows.
Assay notes: Acid-catalyzed hydrolysis of enol ethers in THF/1 M HCl, percent remaining by GC-FID
Format: physicochemical
Experimental setup: THF/1M HCl (80:20 v/v), room temperature, 168 h
One number for each entry, in %.

Compound | Unit tag | percent remaining, 168 h
CCC(C)OC(=O)C(C)OC=C(C)c1ccc(C)cc1 (racemic) | % | 90.9
CCCCCC(CC)OC(=O)C(C)OC=C(C)c1ccccc1 (racemic) | % | 96.5
CC/C=C\CCOC(=O)C(C)OC=Cc1ccc(OC)cc1 (racemic) | % | 78.1

Could you report percent remaining, 168 h for every entry in the following list?
1. COC(=O)C(C)(C)OC=C(C)c1ccccc1
2. CC/C=C\CCOC(=O)C(C)OC=C(C)c1ccc(OC)cc1 (racemic)

1: 98.1; 2: 81.6
